# assaySystem: recombinant neuraminidase (rNA) of B/Malaysia/2506/04 (influenza B virus B/Malaysia/2506/04)
For each record, write down the corresponding pKd.
Scale: negative log10 of molar concentration, which is what pKd denotes.

*Q* Using the record for recombinant 1F2 IgG2a (antibody, V domains shown) VH: QVHLQQSGPEVARPGASVKLSCKASGYTFTDYYLNWVKQRPRQGLEWIGQIHPGSTNTYYNEKFKGKATLTADKSSSTAYMQLSSLTSEDSAVYFCARSLGDGYYVYAMDYWGQGTAVTVSS VL: DIVMTQSQKFMSTSVGDRVSVTCKASQNVVTNVVWYQQKPGQSPKPLIYSASYRYSGVPDRFTGSGSGTDFTLTISNVQSEDLAEYCCQQYHSYPFTFGSGTKLEVK , report its pKd.
*A* 9.17

*Q* Using the record for recombinant 1F2 IgG1 (antibody, V domains shown) VH: QVHLQQSGPEVARPGASVKLSCKASGYTFTDYYLNWVKQRPRQGLEWIGQIHPGSTNTYYNEKFKGKATLTADKSSSTAYMQLSSLTSEDSAVYFCARSLGDGYYVYAMDYWGQGTAVTVSS VL: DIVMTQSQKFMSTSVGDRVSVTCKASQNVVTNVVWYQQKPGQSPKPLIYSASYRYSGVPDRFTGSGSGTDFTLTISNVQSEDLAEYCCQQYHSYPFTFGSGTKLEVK , report its pKd.
*A* 8.98

*Q* Using the record for recombinant 1F2 monomeric IgA (antibody, V domains shown) VH: QVHLQQSGPEVARPGASVKLSCKASGYTFTDYYLNWVKQRPRQGLEWIGQIHPGSTNTYYNEKFKGKATLTADKSSSTAYMQLSSLTSEDSAVYFCARSLGDGYYVYAMDYWGQGTAVTVSS VL: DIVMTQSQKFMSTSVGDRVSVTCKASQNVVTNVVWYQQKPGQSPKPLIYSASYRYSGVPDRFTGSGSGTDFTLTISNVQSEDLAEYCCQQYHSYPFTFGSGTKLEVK , report its pKd.
*A* 9.02

*Q* Using the record for recombinant 4F11 IgG1 (antibody, V domains shown) VH: DVKLVESGGDLVKPGGSLKLSCAASGFTFSAYSMSWVRQTPERRLEWVATINTGGSFTYYPDSVKGRFTISRDNAKNTLYLQMSSLKSEDTAMYFCTRVSDYGNSAYFPYWGQGTLVIVSA VL: QVVLTQSPALISASPGEKVTMTCSASSNVNYMSWYQQRPRSSPKPWIYLTSKLASGVPPRFSGSGSGTSYSLTISSMEAEDVATYYCQQWSSDPQTFGGGTKVEIK , report its pKd.
*A* 11.05
